- MEASURED TARGET: Cytochrome P450 1A2 (Homo sapiens) (UniProt P05177)
- Sequence (P05177 whole entry, looked up): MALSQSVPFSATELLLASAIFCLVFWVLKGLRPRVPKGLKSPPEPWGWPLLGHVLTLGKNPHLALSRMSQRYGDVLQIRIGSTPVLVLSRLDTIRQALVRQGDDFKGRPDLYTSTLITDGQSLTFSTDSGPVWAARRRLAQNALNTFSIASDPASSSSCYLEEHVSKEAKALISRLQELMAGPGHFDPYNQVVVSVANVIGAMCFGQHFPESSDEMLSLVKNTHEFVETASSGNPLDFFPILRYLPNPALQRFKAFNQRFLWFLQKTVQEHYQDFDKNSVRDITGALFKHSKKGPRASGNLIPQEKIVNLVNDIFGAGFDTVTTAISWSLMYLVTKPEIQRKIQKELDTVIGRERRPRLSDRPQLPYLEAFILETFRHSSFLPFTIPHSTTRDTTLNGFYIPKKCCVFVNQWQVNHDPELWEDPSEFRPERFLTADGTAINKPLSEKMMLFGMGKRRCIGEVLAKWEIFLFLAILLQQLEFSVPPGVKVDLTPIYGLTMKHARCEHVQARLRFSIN
- MEASUREMENT DESCRIPTION: Cytochrome P450 Family 1 Subfamily A Member 2 (CYP1A2) small molecule antagonists: luciferase reporter qHTS assay (AID 1671199); further: nearly all actives have a fitted effect of over 50% in size
- REPORTED CONDITIONS: P450-Glo CYP1A2 enzyme, luciferin luminescence, 1 h; series mostly up to 115 µM
Records with an inconclusive call do not appear. Activity calls are given as the source filed them. The call rests on the fitted dose curve; in most records, active means well fitted inhibition curve with a large enough effect in the repeat runs; inconclusive means weak or mixed curves; inactive means no such curve, though single readings can be large or run the other way.
Result category, one only: yes (1) (active), no (0) (inactive)

Tell me the recorded outcome of this test for O=C(O)c1nn(Cc2ccc(Cl)cc2Cl)c2ccccc12 .
no (0)

Test call for this compound, please: C=CC(=O)OCC(CC)(COC(=O)C=C)COC(=O)C=C
yes (1)

For CN(C)P(=O)(N(C)C)N(C)C , which call appears in the assay record?
no (0)
